tested on: Amaranthus retroflexus; test: Herbicidal activity against 2 to 3 leaf stage Amaranthus retroflexus assessed as inhibition of plant growth at 450 g/ha in greenhouse by postemergence herbicidal activity assay; assay type: functional; conditions: post-emergence, read-out: GI
value.kind: inhibition of growth at 450 g/ha
Respond with a number, then the unit of measure.

Some solved cases for reference:
- compound: "COP(=O)(OC)C(OC(=O)COc1ccc(Cl)cc1Cl)c1cccs1 (stereo not drawn)"
  endpoint.result: "100%"
- compound: "CCC(OC(=O)COc1ccc(Cl)cc1Cl)P(=O)([O-])OC.[Na+] (stereo not drawn)"
  endpoint.result: "97%"
- compound: "COP(=O)(OC)C(OC(=O)COc1ccc(Cl)cc1F)c1cccs1 (stereo not drawn)"
  endpoint.result: "75%"
- compound: "COP(=O)([O-])C(OC(=O)COc1ccc(Cl)cc1Cl)c1ccco1.[Na+] (stereo not drawn)"
  endpoint.result: "100%"
- compound: "COP(=O)(OC)C(OC(=O)COc1cccc(C(F)(F)F)c1)c1ccccn1 (stereo not drawn)"
  endpoint.result: "77.5%"

Record summary for COP(=O)(OC)C(OC(=O)COc1ccc(Cl)cc1C)c1cccs1 (stereo not drawn) : reported inhibition of growth at 450 g/ha = 100%

response.value for COP(=O)(OC)C(OC(=O)COc1cc(Cl)c(Cl)cc1Cl)c1cccs1 (stereo not drawn) (field: inhibition of growth at 450 g/ha) = 90%

Memo: COP(=O)(OC)C(OC(=O)COc1ccc(Br)cc1)c1cccs1 (stereo not drawn) , reported inhibition of growth at 450 g/ha: 60%

// recorded inhibition of growth at 450 g/ha for COP(=O)(O)C(=O)c1ccco1 : 25%

Lab note: measured inhibition of growth at 450 g/ha of COP(=O)(OC)C(OC(=O)COc1ccc(Cl)cc1)c1cccs1 (stereo not drawn) was 80%

Data point: COP(=O)([O-])C(C)OC(=O)COc1ccc(Cl)cc1Cl.[Na+] (stereo not drawn) ; inhibition of growth at 450 g/ha = 98%

For COP(=O)(OC)C(C)OC(=O)COc1ccc(Cl)cc1Cl (stereo not drawn) the compound record lists inhibition of growth at 450 g/ha as 100%

Documented inhibition of growth at 450 g/ha of CCCC(OC(=O)COc1ccc(Cl)cc1Cl)P(=O)([O-])OC.[Na+] (stereo not drawn) : 97%

---

tested on: Eclipta prostrata; test: Herbicidal activity against two to three-leaf stage Eclipta prostrata assessed as inhibition of plant growth at 450 g/ha in greenhouse by post-emergence herbicidal activity assay; format: functional; settings: read-out: GI
Reported inhibition of growth at 450 g/ha values for a set of molecules

- molecule: "COP(=O)(OC)C(OC(=O)COc1ccc(F)cc1F)c1cccs1 (centres undefined)"
  inhibition of growth at 450 g/ha: "70%"
- molecule: "COP(=O)(OC)C(OC(=O)COc1ccc(Cl)cc1Cl)c1cccs1 (centres undefined)"
  inhibition of growth at 450 g/ha: "100%"
- molecule: "COP(=O)(OC)C(OC(=O)COc1cccc(Cl)c1Cl)c1cccs1 (centres undefined)"
  inhibition of growth at 450 g/ha: "85%"

Kindly review the next molecule as well.
Recorded result, COP(=O)(OC)C(OC(=O)COc1ccccc1Cl)c1cccs1 (centres undefined) , inhibition of growth at 450 g/ha: 85%

Reference for the values: ChEMBL document CHEMBL3044788
